Target: T1, 4H3120-AA
T1 chain: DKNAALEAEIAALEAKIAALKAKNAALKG
Experiment: two-hybrid library CCmax;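 further: natural log of median RNA to DNA barcode read ratio; higher means stronger binding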
Conditions: mean of both orientations
parameter: interaction score

I. DKIAALEAENAALKAKIAALEAEIAALKG [4H2274-AA]
II. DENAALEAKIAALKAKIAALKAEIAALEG [4H1385-AA]
When I and II are compared, which has the higher number for interaction score? Please identify the chosen entry by its label.
II
